- ASSAYED SYSTEM: 15-hydroxyprostaglandin dehydrogenase [NAD(+)] (Homo sapiens, UniProt P15428)
- Sequence (P15428 whole entry): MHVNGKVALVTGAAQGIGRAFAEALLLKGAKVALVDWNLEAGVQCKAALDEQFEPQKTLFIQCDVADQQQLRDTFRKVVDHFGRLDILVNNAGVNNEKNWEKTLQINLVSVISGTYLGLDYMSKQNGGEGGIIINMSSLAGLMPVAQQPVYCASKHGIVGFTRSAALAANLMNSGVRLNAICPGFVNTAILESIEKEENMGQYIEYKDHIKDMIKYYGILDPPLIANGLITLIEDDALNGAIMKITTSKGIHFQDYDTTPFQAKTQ
- ASSAY REMARKS: In vitro Assay (5 nM)
Would you mind telling me the reported pIC50 of each entry?
Just the number, please; pIC50 means minus log10 of the concentration in mol/L.

Consider CCCC[S+]([O-])c1sc2nc(-c3cccs3)cc(-c3ccccc3)c2c1C (stereo not drawn) . Its measured pIC50 is 8.15

Entry "CCCC[S@@+]([O-])c1sc2nc(-c3nccs3)cc(-c3nccn3CC)c2c1N" ; pIC50 = 8.85

So for CCCC[S+]([O-])c1sc2nc(-c3cncnc3)cc(-c3ccccc3)c2c1N (stereo not drawn) , the logged pIC50 turned out to be 8.49

Form: compound = "CCCC[S@+]([O-])c1sc2nc(-c3nccs3)cc(-c3nccn3CC)c2c1N" ; pIC50 = 6.66

CCCC[S+]([O-])c1sc2nc(-c3ccccc3)cnc2c1N (stereo not drawn) yielded pIC50 of 8.80

# pIC50 of CCCC[S+]([O-])c1sc2nc(-c3nccs3)cc(-c3cnccn3)c2c1N (stereo not drawn) = 8.57

Note to self: pIC50 recorded for CCCC[S+]([O-])c1sc2nc(-c3cnc(N)nc3)cc(-c3ccccc3)c2c1N (stereo not drawn) was 8.40

Briefly, pIC50 measured for CCCC[S+]([O-])c1cc2c(-c3ccccc3)cc(-c3cccs3)nc2s1 (stereo not drawn) : 7.61

====

- ASSAYED SYSTEM: 15-hydroxyprostaglandin dehydrogenase [NAD(+)] (Homo sapiens)
- ASSAY REMARKS: In vitro Assay (5 nM)
PROPERTY: IC50 (nM)
Number in nM, nothing else.

Summary line: CCCC[S+]([O-])c1sc2nc(-c3nccs3)cc(-c3cn(C)cn3)c2c1N (configuration not stated) [US20240043440, Example 28] , 15-hydroxyprostaglandin dehydrogenase [NAD(+)] (Homo sapiens), reported IC50 = 1.4

Form field IC50 for item CCCC[S+]([O-])c1sc2nc(-c3nccs3)cc(-c3ncccn3)c2c1N (configuration not stated) [US20240043440, Example 8] on 15-hydroxyprostaglandin dehydrogenase [NAD(+)] (Homo sapiens): 2.6

Short answer on 15-hydroxyprostaglandin dehydrogenase [NAD(+)] (Homo sapiens) for CCCC[S+]([O-])c1sc2nc(-c3ccc(F)nc3)cc(-c3ccccc3)c2c1N (configuration not stated) [US20240043440, Example 22] , IC50: 4

Result for CCCC[S+]([O-])c1sc2nc(-c3cccnc3)cc(-c3ccccc3)c2c1N (configuration not stated) [US20240043440, Example 19] , tested on 15-hydroxyprostaglandin dehydrogenase [NAD(+)] (Homo sapiens), IC50: 2.4

Hey, 15-hydroxyprostaglandin dehydrogenase [NAD(+)] (Homo sapiens) data for CCCC[S+]([O-])c1sc2nc(-c3nccs3)nc(-c3cccnc3)c2c1N (configuration not stated) [US20240043440, Example 26] : IC50 came out at 20

Recorded IC50 for CCCC[S+]([O-])c1sc2nc(-c3cnn(C)c3)cc(-c3ccccc3)c2c1N (configuration not stated) [US20240043440, Example 24] on 15-hydroxyprostaglandin dehydrogenase [NAD(+)] (Homo sapiens) was 3

15-hydroxyprostaglandin dehydrogenase [NAD(+)] (Homo sapiens) IC50 of CCCC[S+]([O-])c1sc2nc(-c3nccs3)nc(-c3cnc(C)n3C)c2c1N (configuration not stated) [US20240043440, Example 15] is 3.7
